meta.source: paper PMC11859184

assay: Ex vivo biodistribution of 177Lu-labeled ligands in PC-3 tumor-bearing mice; conditions: mouse, small intestine, intravenous, 4 h pi, n = 5; read-out: Small intestine uptake
Quick list: tissue uptake at 4 h per entry.
Just the number please, in %ID/g, no unit attached.

compound	unit spec	tissue uptake at 4 h
CC(C)C[C@@H](CN1CC(F)(F)C[C@H]1C(N)=O)NC(=O)[C@H](Cc1c[nH]cn1)NC(=O)CN(C)C(=O)[C@@H](NC(=O)[C@H](C)NC(=O)[C@H](Cc1c[nH]c2ccccc12)NC(=O)[C@H](CCC(N)=O)NC(=O)[C@@H](Cc1ccccc1)NC(=O)CN1CCC(NC(=O)CN2CCN(CC(=O)O)CCN(CC(=O)O)CCN(CC(=O)O)CC2)CC1)C(C)C [[^177Lu]Lu-LW02080, metal not drawn]	%ID/g	0.07

Query: Consider the compound CC(C)C[C@H](NC(=O)[C@H](Cc1cnc[nH]1)N(C)C(=O)CNC(=O)[C@@H](NC(=O)[C@H](C)NC(=O)[C@H](Cc1c[nH]c2ccccc12)NC(=O)[C@H](CCC(N)=O)NC(=O)[C@@H](Cc1ccccc1)NC(=O)CN1CCC(NC(=O)CN2CCN(CC(=O)O)CCN(CC(=O)O)CCN(CC(=O)O)CC2)CC1)C(C)(C)C)C(=O)N1CC(F)(F)C[C@H]1C(N)=O [[^177Lu]Lu-LW02060, metal not drawn] and give its measured tissue uptake at 4 h.
Reply: 0.26

----------
Test: Ex vivo biodistribution of 177Lu-labeled ligands in PC-3 tumor-bearing mice
Conditions: mouse, adrenal glands, intravenous, 24 h pi, n = 5; read-out: Adrenal glands uptake
Experimental: SPECT/CT imaging was conducted using an MI Labs (Houten, The Netherlands) U-SPECT-II/CT scanner with a custom-made ultra-high sensitivity big mouse collimator (2 mm pinhole size) following published procedure. The experiments were obtained in accordance with the same protocol established in the PET/CT imaging and ex vivo biodistributions section. The mice were used for SPECT/CT imaging and ex vivo biodistributions studies once the tumors reached a diameter of 5–8 mm. […]
recorded metric: tissue uptake at 24 h (%ID/g)
Report as a plain number; the unit %ID/g is understood.

compound	unit spec	tissue uptake at 24 h
CC(C)C[C@@H](CN1CC(F)(F)C[C@H]1C(N)=O)NC(=O)[C@H](Cc1c[nH]cn1)NC(=O)CN(C)C(=O)[C@@H](NC(=O)[C@H](C)NC(=O)[C@H](Cc1c[nH]c2ccccc12)NC(=O)[C@H](CCC(N)=O)NC(=O)[C@@H](Cc1ccccc1)NC(=O)CN1CCC(NC(=O)CN2CCN(CC(=O)O)CCN(CC(=O)O)CCN(CC(=O)O)CC2)CC1)C(C)C [[^177Lu]Lu-LW02080, metal not drawn]	%ID/g	0.12

# next compound below
Query: # lookup: tissue uptake at 24 h of CC(C)C[C@H](NC(=O)[C@H](Cc1cnc[nH]1)N(C)C(=O)CNC(=O)[C@@H](NC(=O)[C@H](C)NC(=O)[C@H](Cc1c[nH]c2ccccc12)NC(=O)[C@H](CCC(N)=O)NC(=O)[C@@H](Cc1ccccc1)NC(=O)CN1CCC(NC(=O)CN2CCN(CC(=O)O)CCN(CC(=O)O)CCN(CC(=O)O)CC2)CC1)C(C)(C)C)C(=O)N1CC(F)(F)C[C@H]1C(N)=O [[^177Lu]Lu-LW02060, metal not drawn]
Reply: 0.36

----------
Assay: Ex vivo biodistribution of 177Lu-labeled ligands in PC-3 tumor-bearing mice
Conditions: mouse, adrenal glands, intravenous, 1 h pi, n = 5; read-out: Adrenal glands uptake
Experimental: SPECT/CT imaging was conducted using an MI Labs (Houten, The Netherlands) U-SPECT-II/CT scanner with a custom-made ultra-high sensitivity big mouse collimator (2 mm pinhole size) following published procedure. The experiments were obtained in accordance with the same protocol established in the PET/CT imaging and ex vivo biodistributions section. The mice were used for SPECT/CT imaging and ex vivo biodistributions studies once the tumors reached a diameter of 5–8 mm. […]
recorded metric: tissue uptake at 1 h (%ID/g)
Provide only the numeric value, understood in %ID/g.

compound	tissue uptake at 1 h (%ID/g)
CC(C)C[C@@H](CN1CC(F)(F)C[C@H]1C(N)=O)NC(=O)[C@H](Cc1c[nH]cn1)NC(=O)CN(C)C(=O)[C@@H](NC(=O)[C@H](C)NC(=O)[C@H](Cc1c[nH]c2ccccc12)NC(=O)[C@H](CCC(N)=O)NC(=O)[C@@H](Cc1ccccc1)NC(=O)CN1CCC(NC(=O)CN2CCN(CC(=O)O)CCN(CC(=O)O)CCN(CC(=O)O)CC2)CC1)C(C)C [[^177Lu]Lu-LW02080, metal not drawn]	0.18

Would you kindly look at the next entry?
Query: Request the reported tissue uptake at 1 h associated with CC(C)C[C@H](NC(=O)[C@H](Cc1cnc[nH]1)N(C)C(=O)CNC(=O)[C@@H](NC(=O)[C@H](C)NC(=O)[C@H](Cc1c[nH]c2ccccc12)NC(=O)[C@H](CCC(N)=O)NC(=O)[C@@H](Cc1ccccc1)NC(=O)CN1CCC(NC(=O)CN2CCN(CC(=O)O)CCN(CC(=O)O)CCN(CC(=O)O)CC2)CC1)C(C)(C)C)C(=O)N1CC(F)(F)C[C@H]1C(N)=O [[^177Lu]Lu-LW02060, metal not drawn]
Reply: 0.46

----------
assay: Ex vivo biodistribution of 177Lu-labeled ligands in PC-3 tumor-bearing mice; settings: mouse, lungs, intravenous, 4 h pi, n = 5; read-out: Lungs uptake
recorded metric: tissue uptake at 4 h (%ID/g)
Output spec: scalar in %ID/g, unitless text.

molecule	obs value
CC(C)C[C@H](NC(=O)[C@H](Cc1cnc[nH]1)N(C)C(=O)CNC(=O)[C@@H](NC(=O)[C@H](C)NC(=O)[C@H](Cc1c[nH]c2ccccc12)NC(=O)[C@H](CCC(N)=O)NC(=O)[C@@H](Cc1ccccc1)NC(=O)CN1CCC(NC(=O)CN2CCN(CC(=O)O)CCN(CC(=O)O)CCN(CC(=O)O)CC2)CC1)C(C)(C)C)C(=O)N1CC(F)(F)C[C@H]1C(N)=O [[^177Lu]Lu-LW02060, metal not drawn]	0.15

Next:
Query: Consider the molecule shown here: CC(C)C[C@@H](CN1CC(F)(F)C[C@H]1C(N)=O)NC(=O)[C@H](Cc1c[nH]cn1)NC(=O)CN(C)C(=O)[C@@H](NC(=O)[C@H](C)NC(=O)[C@H](Cc1c[nH]c2ccccc12)NC(=O)[C@H](CCC(N)=O)NC(=O)[C@@H](Cc1ccccc1)NC(=O)CN1CCC(NC(=O)CN2CCN(CC(=O)O)CCN(CC(=O)O)CCN(CC(=O)O)CC2)CC1)C(C)C [[^177Lu]Lu-LW02080, metal not drawn] What is its recorded tissue uptake at 4 h?
Reply: 0.13

----------
assay: Ex vivo biodistribution of 177Lu-labeled ligands in PC-3 tumor-bearing mice; conditions: mouse, pancreas, intravenous, 24 h pi, n = 5; read-out: Pancreas uptake
Recorded measurements of tissue uptake at 24 h, one per entry
Numeric answer plus unit only.

compound	recorded metric	obs value
CC(C)C[C@@H](CN1CC(F)(F)C[C@H]1C(N)=O)NC(=O)[C@H](Cc1c[nH]cn1)NC(=O)CN(C)C(=O)[C@@H](NC(=O)[C@H](C)NC(=O)[C@H](Cc1c[nH]c2ccccc12)NC(=O)[C@H](CCC(N)=O)NC(=O)[C@@H](Cc1ccccc1)NC(=O)CN1CCC(NC(=O)CN2CCN(CC(=O)O)CCN(CC(=O)O)CCN(CC(=O)O)CC2)CC1)C(C)C [[^177Lu]Lu-LW02080, metal not drawn]	tissue uptake at 24 h	0.04 %ID/g

Proceed to the following item.
Query: Please give the measured tissue uptake at 24 h for this compound: CC(C)C[C@H](NC(=O)[C@H](Cc1cnc[nH]1)N(C)C(=O)CNC(=O)[C@@H](NC(=O)[C@H](C)NC(=O)[C@H](Cc1c[nH]c2ccccc12)NC(=O)[C@H](CCC(N)=O)NC(=O)[C@@H](Cc1ccccc1)NC(=O)CN1CCC(NC(=O)CN2CCN(CC(=O)O)CCN(CC(=O)O)CCN(CC(=O)O)CC2)CC1)C(C)(C)C)C(=O)N1CC(F)(F)C[C@H]1C(N)=O [[^177Lu]Lu-LW02060, metal not drawn]
Reply: 1.04 %ID/g

----------
Attribute: tissue uptake at 1 h
test: Ex vivo biodistribution of 68Ga-labeled tracers in PC-3 tumor-bearing mice; conditions: mouse, blood, intravenous; 1 h pi, n = 4; read-out: Blood uptake
Expressed in %ID/g, but write only the number.

compound	obs value
CC(C)C[C@@H](CN1CC(F)(F)C[C@H]1C(N)=O)NC(=O)[C@H](Cc1c[nH]cn1)NC(=O)CN(C)C(=O)[C@@H](NC(=O)[C@H](C)NC(=O)[C@H](Cc1c[nH]c2ccccc12)NC(=O)[C@H](CCC(N)=O)NC(=O)[C@@H](Cc1ccccc1)NC(=O)CN1CCC(NC(=O)CN2CCN(CC(=O)O)CCN(CC(=O)O)CCN(CC(=O)O)CC2)CC1)C(C)C [[^68Ga]Ga-LW02080, metal not drawn]	0.33

Query: # query: tissue uptake at 1 h of entry CC(C)C[C@H](NC(=O)[C@H](Cc1cnc[nH]1)N(C)C(=O)CNC(=O)[C@@H](NC(=O)[C@H](C)NC(=O)[C@H](Cc1c[nH]c2ccccc12)NC(=O)[C@H](CCC(N)=O)NC(=O)[C@@H](Cc1ccccc1)NC(=O)CN1CCC(NC(=O)CN2CCN(CC(=O)O)CCN(CC(=O)O)CCN(CC(=O)O)CC2)CC1)C(C)(C)C)C(=O)N1CC(F)(F)C[C@H]1C(N)=O [[^68Ga]Ga-LW02060, metal not drawn]
Reply: 0.54
